- System: SF-295
- Protocol text: Anticancer activity against human SF-295 cells assessed as cell growth inhibition measured after 48 hrs by SRB assay
- Assay type: functional
Measured GI50 by item

[
  {
    "Compound": "COC(=O)C[C@@H]1NC(=O)c2cc(Oc3ccc(OC)cc3)c(NC(=O)c3cc(OC)c(OC)c(OC)c3)cc2NC1=O",
    "System under test": "SF-295",
    "GI50": "> 50000 nM"
  },
  {
    "Compound": "COC(=O)C[C@@H]1NC(=O)c2cc(Oc3ccc(F)cc3)c(NC(=O)c3cc(OC)c(OC)c(OC)c3)cc2NC1=O",
    "System under test": "SF-295",
    "GI50": "> 50000 nM"
  },
  {
    "Compound": "COC(=O)C[C@@H]1NC(=O)c2cc(OC)c(NC(=O)c3cc(OC)c(OC)c(OC)c3)cc2NC1=O",
    "System under test": "SF-295",
    "GI50": "> 50000 nM"
  },
  {
    "Compound": "COc1cc(C(=O)Nc2cc3c(cc2Oc2cc(C)cc(C)c2)C(=O)N[C@@H](Cc2nnc(C)o2)C(=O)N3)cc(OC)c1OC",
    "System under test": "SF-295",
    "GI50": "940 nM"
  },
  {
    "Compound": "CCN(CC)C(=O)C[C@@H]1NC(=O)c2cc(Oc3cc(C)cc(C)c3)c(NC(=O)c3cc(OC)c(OC)c(OC)c3Br)cc2NC1=O",
    "System under test": "SF-295",
    "GI50": "< 5 nM"
  }
]

Return GI50 for the following compound: CCN(CC)C(=O)C[C@@H]1NC(=O)c2cc(Oc3cc(C)cc(C)c3)c(NC(=O)c3cc(OC)c(OC)c(OC)c3)cc2N(C)C1=O
> 50000 nM

For the compound CCN(CC)C(=O)C[C@H]1C(=O)Nc2cc(NC(=O)c3cc(OC)c(OC)c(OC)c3)c(Oc3cc(C)cc(C)c3)cc2C(=O)N1C , give its measured GI50 value.
10 nM

Input COC(=O)C[C@@H]1NC(=O)c2cc(-c3cc(C)cc(C)c3)c(NC(=O)c3cc(OC)c(OC)c(OC)c3)cc2NC1=O , output reported GI50.
> 50000 nM

Provide measured GI50 value, entry: COC(=O)C[C@@H]1NC(=O)c2cc(OCCCc3cc(C)cc(C)c3)c(NC(=O)c3cc(OC)c(OC)c(OC)c3)cc2NC1=O
> 50000 nM

Name the recorded GI50 of the item CCN(CC)C(=O)C[C@H]1C(=O)Nc2cc(NC(=O)c3cc(OC)c(OC)c(OC)c3Br)c(Oc3cc(C)cc(C)c3)cc2C(=O)N1C in your answer.
< 5 nM

Retrieve GI50 measured for COC(=O)C[C@@H]1NC(=O)c2cc(Oc3cc(C)cc(F)c3)c(NC(=O)c3cc(OC)c(OC)c(OC)c3)cc2NC1=O and print it.
150 nM

----------
Measured GI50, listed per entry.
- System: A549
- Protocol text: Anticancer activity against human A549 cells assessed as cell growth inhibition measured after 48 hrs by SRB assay
- Type: functional
API: value field is a number in nM; no unit string.

[
  {
    "Smiles": "COc1cc(C(=O)Nc2cc3c(cc2Oc2cc(C)cc(C)c2)C(=O)N[C@@H](Cc2ncnn2C)C(=O)N3)cc(OC)c1OC",
    "GI50 (nM)": 470
  },
  {
    "Smiles": "COC(=O)C[C@@H]1NC(=O)c2cc(Oc3cccc(N(C)C)c3)c(NC(=O)c3cc(OC)c(OC)c(OC)c3)cc2NC1=O",
    "GI50 (nM)": 3410
  },
  {
    "Smiles": "COC(=O)C[C@@H]1NC(=O)c2cc(OCc3cc(C)cc(C)c3)c(NC(=O)c3cc(OC)c(OC)c(OC)c3)cc2NC1=O",
    "GI50 (nM)": 1810
  }
]

Give the value of GI50 reported for the following: CCCCN(CCCC)C(=O)C[C@@H]1NC(=O)c2cc(Oc3cc(C)cc(C)c3)c(NC(=O)c3cc(OC)c(OC)c(OC)c3)cc2NC1=O
360

In one line, give reported GI50 of the entry CCN(CC)C(=O)C[C@@H]1NC(=O)c2cc(Oc3cc(C)cc(C)c3)c(NC(=O)c3cc(OC)c(OC)c(OC)c3)cc2NC1=O .
20

Please give measured GI50 of the following entry: CCN(CC)C(=O)C[C@H]1C(=O)Nc2cc(NC(=O)c3c(Cl)c(OC)c(OC)c(OC)c3Br)c(Oc3cc(C)cc(C)c3)cc2C(=O)N1C
74

----------
- Tested on: LOX IMVI
- Protocol text: Anticancer activity against human LOX IMVI cells assessed as cell growth inhibition measured after 48 hrs by SRB assay
- Type: functional
Measured property: GI50

Supply GI50 value. Item: COC(=O)C[C@@H]1NC(=O)c2cc(Oc3cc(C)cc(C)c3)c(NC(=O)c3ccco3)cc2NC1=O
> 50000 nM

Provide measured GI50 value, entry: COC(=O)C[C@@H]1NC(=O)c2cc(Oc3ccc(C)c(C)c3)c(NC(=O)c3cc(OC)c(OC)c(OC)c3)cc2NC1=O
2550 nM

Fill in reported GI50 for this entry: CCN(CC)C(=O)C[C@@H]1NC(=O)c2cc(Oc3cc(C)cc(C)c3)c(NC(=O)c3c(F)c(OC)c(OC)c(OC)c3Cl)cc2NC1=O
7 nM

Read the entry COC(=O)C[C@@H]1NC(=O)c2cc(Oc3cc(C)cc(F)c3)c(NC(=O)c3cc(OC)c(OC)c(OC)c3)cc2NC1=O and write its reported GI50.
190 nM

Give the value of GI50 reported for the following: CCc1noc(C[C@@H]2NC(=O)c3cc(Oc4cc(C)cc(C)c4)c(NC(=O)c4cc(OC)c(OC)c(OC)c4)cc3NC2=O)n1
130 nM

Tell us which GI50 value is on record for CCN(CC)C(=O)C[C@@H]1NC(=O)c2cc(Oc3cc(C)cc(C)c3)c(NC(=O)c3cc(OC)c(OC)c(OC)c3)cc2N(C)C1=O
> 50000 nM

Indicate its recorded GI50; the compound in question is COC(=O)C[C@@H]1NC(=O)c2cc(Oc3ccc(F)cc3)c(NC(=O)c3cc(OC)c(OC)c(OC)c3)cc2NC1=O
> 50000 nM

----------
- Tested on: A549
- Protocol text: Anticancer activity against human A549 cells assessed as cell growth inhibition measured after 48 hrs by SRB assay
- Type: functional
As shown below, each of these molecules has a reported log10(GI50) value.
Heads up: the numbers are on a log10 scale; they represent GI50 in nM.

Here are 5 molecules together with their reported answers.
[
  {
    "Smiles": "COC(=O)C[C@@H]1NC(=O)c2cc(Oc3cc(C)cc(F)c3)c(NC(=O)c3cc(OC)c(OC)c(OC)c3)cc2NC1=O",
    "log10(GI50)": 2.15
  },
  {
    "Smiles": "COC(=O)C[C@@H]1NC(=O)c2cc(Oc3cc(C)ccc3C)c(NC(=O)c3cc(OC)c(OC)c(OC)c3)cc2NC1=O",
    "log10(GI50)": 3.07
  },
  {
    "Smiles": "COC(=O)C[C@@H]1NC(=O)c2cc(Oc3ccc(C)c(C)c3)c(NC(=O)c3cc(OC)c(OC)c(OC)c3)cc2NC1=O",
    "log10(GI50)": 3.18
  },
  {
    "Smiles": "CCN(CC)C(=O)C[C@@H]1NC(=O)c2cc(Oc3cc(C)c(F)c(C)c3)c(NC(=O)c3cc(OC)c(OC)c(OC)c3Cl)cc2NC1=O",
    "log10(GI50)": 1.41
  },
  {
    "Smiles": "COC(=O)C[C@@H]1NC(=O)c2cc(Oc3cc(C)cc(C)c3)c(NC(=O)c3cc(OC)cc(OC)c3)cc2NC1=O",
    "log10(GI50)": 2.18
  }
]

Consider the additional molecule presented here.
Tell me its log10(GI50) given CCc1nc(C[C@@H]2NC(=O)c3cc(Oc4cc(C)cc(C)c4)c(NC(=O)c4cc(OC)c(OC)c(OC)c4)cc3NC2=O)no1 as the entry.
2.43

----------
- System: HCT-116
- Protocol text: Anticancer activity against human HCT-116 cells assessed as cell growth inhibition measured after 48 hrs by SRB assay
- Format: functional
Classify: y when GI50 is strictly less than 0.03 µM; n when GI50 is not.

Below are worked cases with known answers.
[
  {
    "Compound": "CCN(CC)C(=O)C[C@H]1C(=O)Nc2cc(NC(=O)c3c(Cl)c(OC)c(OC)c(OC)c3Br)c(Oc3cc(C)cc(C)c3)cc2C(=O)N1C",
    "System under test": "HCT-116",
    "Label class": "n"
  },
  {
    "Compound": "COC(=O)C[C@@H]1NC(=O)c2cc(Oc3ccc(OC)cc3)c(NC(=O)c3cc(OC)c(OC)c(OC)c3)cc2NC1=O",
    "System under test": "HCT-116",
    "Label class": "n"
  },
  {
    "Compound": "COC(=O)C[C@@H]1NC(=O)c2cc(OCCN3CCOCC3)c(NC(=O)c3cc(OC)c(OC)c(OC)c3)cc2NC1=O",
    "System under test": "HCT-116",
    "Label class": "n"
  }
]

Determine if COC(=O)C[C@@H]1NC(=O)c2cc(OCCCc3cc(C)cc(C)c3)c(NC(=O)c3cc(OC)c(OC)c(OC)c3)cc2NC1=O shows GI50 strictly lower than 0.03 µM.
n
